Molecular target: T1, Human Tau 2N4R, wild type, recombinant full length (human, UniProt P10636 2-758)
T1 construct: Full length 2N4R isoform; monomer in SPR and ELISA; heparin-induced aggregates or seeds in the functional assays; also called Tau441; Tau-441
T1 sequence (P10636 other isoform, or with tags, fused parts or gaps limits assumed): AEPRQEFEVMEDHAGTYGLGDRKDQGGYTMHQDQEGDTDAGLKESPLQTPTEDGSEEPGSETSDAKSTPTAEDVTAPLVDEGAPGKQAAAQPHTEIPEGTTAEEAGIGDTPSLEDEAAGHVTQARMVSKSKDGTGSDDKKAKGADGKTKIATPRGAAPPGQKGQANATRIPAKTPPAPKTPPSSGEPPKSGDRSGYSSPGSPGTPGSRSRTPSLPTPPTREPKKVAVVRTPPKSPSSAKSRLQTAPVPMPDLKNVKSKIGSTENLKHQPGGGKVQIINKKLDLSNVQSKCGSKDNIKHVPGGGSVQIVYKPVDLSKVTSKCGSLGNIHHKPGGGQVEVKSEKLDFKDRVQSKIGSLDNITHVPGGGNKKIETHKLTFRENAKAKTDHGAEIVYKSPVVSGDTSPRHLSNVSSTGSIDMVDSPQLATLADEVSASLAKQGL
Test: SPR BIAcore, mAb captured by anti-human IgG, Tau flowed, 1:1 Langmuir
Method: All experiments were performed using a BIAcore™ T-100 instrument (GE Healthcare). […] Binding of humanized and mouse antibodies were analyzed by BIAcore™ to determine their relative association rates (ka), dissociation rates (kd), and equilibrium binding constants (KD). […] The binding constants kₐ, kd, and KD were determined using a 1:1 Langmuir fitting model. […]
readout_type: pKd
Convention used: pKd is expressed as -log10 of the molar concentration.

Indicate its recorded pKd; the binder in question is 7G6-HCzu16-LCzu12 (antibody, human IgG1, kappa, V domains shown, humanized, human IgG1 kappa) VH: EVQLLESGGGLVQPGGSLRLSCAASGYTFTTYWITWVRQAPGKGLEWVSDIYPGSSICNYNEKFKSRFTISVDNSKNTAYLQMNSLRAEDTAVYYCAREDGYDAWFAYWGQGTLVTVSS VL: DVQMTQSPSSLSASVGDRVTITCRSSQSILHSNGNTYLEWYQQKPGKAPKLLICKVSNRFSGVPSRFSGSGSGTDFTLTISSLQPEDFATYYCFQGSHVPFTFGQGTKLEIKR 9.94

Indicate its recorded pKd; the binder in question is 7G6-HCzu20-LCzu12 (antibody, human IgG1, kappa, V domains shown, humanized, human IgG1 kappa) VH: EVQLLESGGGLVQPGGSLRLSCAASGYTFTTYWITWVRQAPGKGLEWVSDIYPGSSICNYADKFKGRFTISRDNSKNTLYLQMNSLRAEDTAVYYCAKEDGYDAWFAYWGQGTLVTVSS VL: DVQMTQSPSSLSASVGDRVTITCRSSQSILHSNGNTYLEWYQQKPGKAPKLLICKVSNRFSGVPSRFSGSGSGTDFTLTISSLQPEDFATYYCFQGSHVPFTFGQGTKLEIKR 9.92

Indicate its recorded pKd; the binder in question is 7G6-HCzu12-LCzu16 (antibody, human IgG1, kappa, V domains shown, humanized, human IgG1 kappa) VH: EVQLLESGGGLVQPGGSLRLSCAASGYTFTTYWITWVRQAPGKGLEWVGDIYPGSSICNYNEKFKSRFTISVDNSKSTAYLQMNSLRAEDTAVYYCAREDGYDAWFAYWGQGTLVTVSS VL: DVQMTQSPSSLSASVGDRVTITCRSSQSIVHSNGNTYLEWYQQKPGKAPKLLISKVSNRFSGVPSRFSGSGSGTDFTLTISSLQPEDFATYYCFQGSHVPFTFGQGTKLEIKR 10.00
